Assay: Saturation solubility of OA in different oils and surfactants
Type: physicochemical
Details: oil or lipid, thermodynamic from solid; in Labrasol ALF, 24 h at 25 °C
Experimental: The solubility of OA in different vehicles was defined by adding an excess of OA to 2 mL of each of the tested solvents/tensides: Water, Capmul PG-8/NF, Capmul PG-12/NF, Capryol 90, Captex 300, Captex 355, Cremophor EL, Etyl Oleate, Isoprpyl myristate, Labrafac lipophile, Labrafilm 1944, Labrafilm 2125, Labrasol, Labrasol ALF, Lauroglycol 90, Nigella Oil, PEG400, Soybean Oil, Sunflower Oil, Transcutol, Triacetine, Tween 20 and Tween 80. […]
Parameter: solubility at 24 h (mg/mL)

[
  {
    "Compound": "CC1(C)CC[C@]2(C(=O)O)CC[C@]3(C)C(=CC[C@@H]4[C@@]5(C)CC[C@H](O)C(C)(C)[C@@H]5CC[C@]43C)[C@@H]2C1 [OA, Oleanolic acid]",
    "Test value": 12
  }
]
